TARGET_ENTITY: Nuclear factor erythroid 2-related factor 2 (Homo sapiens) (UniProt Q16236)
Sequence (Q16236 whole entry): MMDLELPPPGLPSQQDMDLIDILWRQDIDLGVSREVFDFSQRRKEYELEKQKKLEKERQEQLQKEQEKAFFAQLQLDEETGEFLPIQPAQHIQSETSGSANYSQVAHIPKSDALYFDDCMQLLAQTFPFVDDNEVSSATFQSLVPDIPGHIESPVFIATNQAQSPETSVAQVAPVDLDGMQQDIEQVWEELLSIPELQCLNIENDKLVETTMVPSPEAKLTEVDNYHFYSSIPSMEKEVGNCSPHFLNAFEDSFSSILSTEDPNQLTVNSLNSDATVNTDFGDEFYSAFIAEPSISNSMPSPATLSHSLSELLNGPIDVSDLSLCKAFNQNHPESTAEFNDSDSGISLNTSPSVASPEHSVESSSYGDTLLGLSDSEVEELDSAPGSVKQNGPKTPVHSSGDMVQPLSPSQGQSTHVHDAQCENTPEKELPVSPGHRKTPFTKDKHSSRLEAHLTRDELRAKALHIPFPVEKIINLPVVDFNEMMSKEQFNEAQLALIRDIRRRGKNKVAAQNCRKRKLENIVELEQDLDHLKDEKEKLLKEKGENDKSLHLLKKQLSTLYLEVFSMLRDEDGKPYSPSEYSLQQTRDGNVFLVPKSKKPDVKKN
EXPERIMENT_NOTES: Activation of Nrf2 in human HepG2-ARE-C8 cells assessed as induction of ARE-mediated luciferase activity at 80 uM after 24 hrs by luciferase reporter gene assay relative to control
Assay type: cell-based
OBSERVED_PROPERTY: Activity
One number for each entry.

Fc1ccc(-c2noc(-c3ccc(F)c(F)c3)n2)cc1: 6.93

// for each compound below, give its Activity
1. Fc1cccc(-c2nc(-c3ccc4nc[nH]c4c3)no2)c1
2. CC(C)(C)c1cc(O)ccc1O
3. Fc1ccc(-c2nc(-c3cccnc3)no2)cc1F
4. Fc1ccc(-c2nc(-c3ccncc3)no2)cc1F
5. Fc1ccc(-c2nc(-c3cccc4[nH]ccc34)no2)cc1F
6. Fc1ccc(-c2nc(-c3ccc4ccccc4c3)no2)cc1F
7. CC(C)(C)c1ccc(-c2noc(-c3ccc(F)c(F)c3)n2)cc1
8. Fc1ccccc1-c1nc(-c2ccc3nc[nH]c3c2)no1

Result ::
[14.1, 5.27, 4.15, 2.88, 4.02, 3.57, 24, 19.1]

----------
TARGET_ENTITY: Nuclear factor erythroid 2-related factor 2 (Homo sapiens) (UniProt Q16236)
EXPERIMENT_NOTES: Activation of Nrf2 in human HepG2-ARE-C8 cells assessed as induction of ARE-mediated luciferase activity at 80 uM after 24 hrs by luciferase reporter gene assay relative to control
Format: cell-based
Activity under 10 gets label 1, anything at or over 10 gets label 0.

Fc1ccc(-c2nc(-c3ccc4nc[nH]c4c3)no2)c(F)c1: label 1
Fc1ccc(-c2nc(-c3ncccc3F)no2)cc1F: label 1

Query :: In the record for Fc1ccc(-c2nc(-c3ccc4nc[nH]c4c3)no2)cc1Br , is Activity less than 10?
Result :: label 1

----------
I'd be grateful if you could share measured Activity for these entries.
TARGET_ENTITY: UniProtKB Q16236
EXPERIMENT_NOTES: Activation of Nrf2 in human HepG2-ARE-C8 cells assessed as induction of ARE-mediated luciferase activity at 80 uM after 24 hrs by luciferase reporter gene assay relative to control
Type: cell-based
One number for each entry.

Solved entries (count: 3):
Fc1cc(F)c(-c2nc(-c3ccc4nc[nH]c4c3)no2)cc1F: 7.92
Fc1ccc(-c2nc(-c3ccccc3Br)no2)cc1F: 3.63
Fc1ccc(-c2nc(-c3ccc(-c4ccccc4)cc3)no2)cc1F: 14.7

// for each molecule below, give its Activity
1. Fc1ccc(-c2nc(-c3ccc4nc[nH]c4c3)no2)cc1Cl
2. Fc1cc(F)c(-c2nc(-c3ccc4nc[nH]c4c3)no2)cc1Cl
3. Fc1ccc(-c2nc(-c3ncccn3)no2)cc1F

Result ::
[12.5, 7.61, 5.82]

// for each molecule below, give its Activity
1. Fc1ccc(-c2nc(-c3ccc4nc[nH]c4c3)no2)cc1F
2. COc1cccc(-c2noc(-c3ccc(F)c(F)c3)n2)c1
3. Fc1ccc(-c2nc(-c3ccc4nc[nH]c4c3)no2)c(Br)c1

Result ::
1: 49.9; 2: 16.4; 3: 25.1

// for each molecule below, give its Activity
1. Clc1cccc(-c2nc(-c3ccc4nc[nH]c4c3)no2)c1
2. Cc1ccc(-c2noc(-c3ccc(F)c(F)c3)n2)cn1

Result ::
1. 19.1
2. 59.5

// for each molecule below, give its Activity
1. Cc1ccnc(-c2noc(-c3ccc(F)c(F)c3)n2)c1
2. Fc1ccc(-c2nc(-c3cnccn3)no2)cc1F
3. Fc1ccc(-c2noc(-c3ccc(F)c(F)c3)n2)cc1F

Result ::
10.6
3.35
2.56

The measured values listed here are drawn from ChEMBL document CHEMBL4265908.
